Molecular target: T1, human PCSK9 (proprotein convertase subtilisin kexin type 9) (human, UniProt Q8NBP7 31-692)
T1 construct: Directly immobilized (SPR ProteOn), biotinylated (BLI), or in solution, depending on the assay; also called hPCSK9
T1 sequence (Q8NBP7 31-692 limits assumed): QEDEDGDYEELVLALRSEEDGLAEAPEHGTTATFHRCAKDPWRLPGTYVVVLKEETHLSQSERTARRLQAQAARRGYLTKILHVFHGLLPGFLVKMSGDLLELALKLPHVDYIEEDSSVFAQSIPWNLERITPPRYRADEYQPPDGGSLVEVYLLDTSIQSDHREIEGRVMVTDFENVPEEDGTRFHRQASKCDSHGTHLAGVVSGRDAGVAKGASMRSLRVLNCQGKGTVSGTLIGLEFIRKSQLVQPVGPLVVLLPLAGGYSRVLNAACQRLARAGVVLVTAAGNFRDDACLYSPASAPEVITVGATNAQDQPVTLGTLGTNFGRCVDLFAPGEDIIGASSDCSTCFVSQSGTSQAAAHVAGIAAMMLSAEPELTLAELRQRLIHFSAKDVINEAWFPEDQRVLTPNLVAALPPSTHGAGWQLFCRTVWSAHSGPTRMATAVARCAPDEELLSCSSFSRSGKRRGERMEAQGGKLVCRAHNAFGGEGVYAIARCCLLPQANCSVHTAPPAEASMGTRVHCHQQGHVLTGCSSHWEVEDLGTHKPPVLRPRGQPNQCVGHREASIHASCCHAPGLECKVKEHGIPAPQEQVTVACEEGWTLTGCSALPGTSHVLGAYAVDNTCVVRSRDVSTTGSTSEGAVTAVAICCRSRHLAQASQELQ
Experiment: FRET direct binding, anti-his6 antibody
Below, each entry is listed alongside its reported EC50.
Lab book: enter the figure in nM, no units written.

Some entries whose results are on file:
[
  {
    "BINDER": "1813E02 (designed binder, Anti-PCSK9 Adnectin, His6-tagged) MGVSDVPRDLEVVAATPTSLLISWSPPANGYGYYRITYGETGGNSPVQEFTVPVGRGTATISGLKPGVDYTITVYAVEYTYKGSGYYHRPISINYRTEIDKPSQHHHHHH",
    "EC50 [nM]": 2.3
  },
  {
    "BINDER": "2381H09 (designed binder, Anti-PCSK9 Adnectin, His6-tagged) MGVSDVPRDLEVVAATPTSLLISWDAPAGGGYGYYRITYGETGGNSPVQEFTVPVSKGTATISGLKPGVDYTITVYAVEFDFVGAGYYHRPISINYRTEIDKPSQHHHHHH",
    "EC50 [nM]": 4.1
  },
  {
    "BINDER": "2381G09 (designed binder, Anti-PCSK9 Adnectin, His6-tagged) MGVSDVPRDLEVVAATPTSLLISWDAPAGDGYGYYRITYGETGGNSPVQEFTVPVSKGTATISGLKPGVDYTITVYAVEFTFPGAGYYHRPISINYRTEIDKPSQHHHHHH",
    "EC50 [nM]": 4.5
  }
]

Proceeding to the next binder to report its EC50.
stdin: # input binder: 2382C05 (designed binder, Anti-PCSK9 Adnectin, His6-tagged) MGVSDVPRDLEVVAATPTSLLISWDAPADGAYGYYRITYGETGGNSPVQEFTVPVSKGTATISGLKPGVDYTITVYAVEYSFPGAGYYHRPISINYRTEIDKPSQHHHHHH ; wanted: its EC50
stdout: 3.4
